biological target: T1, CD3 epsilon homodimer protein (UniProt P07766 23-126); assay: SPR, antibody over immobilised CD3e homodimer;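 note: SPR at 25 °C with CD3 epsilon homodimer amine-coupled to a CM4 sensor chip and antibody flowed over as analyte in HBS-EP+ running buffer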
T1 construct: also called CD3 (CD3 epsilon)
T1 sequence (P07766 23-126): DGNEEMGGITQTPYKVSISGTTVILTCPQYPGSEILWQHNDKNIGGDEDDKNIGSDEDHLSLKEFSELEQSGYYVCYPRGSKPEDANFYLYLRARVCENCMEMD
// KD ratio to GLS3000 lookup, one value per entry
// no unit, no text: just the number

Sample answers from the record:
CE115HA000/GLS3000 F55K (antibody, IgG1, name in Kabat numbering, V domains shown, one-arm IgG1) VH: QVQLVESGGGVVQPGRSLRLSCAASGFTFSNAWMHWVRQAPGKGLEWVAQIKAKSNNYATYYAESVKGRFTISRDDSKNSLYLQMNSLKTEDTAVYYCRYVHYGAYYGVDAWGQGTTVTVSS VL: DIVMTQSPLSLPVTPGEPASISCRSSQSLVHSNRNTYLHWYQQKPGQAPRLLIYKVSNRKSGVPDRFSGSGSGTDFTLKISRVEAEDVGVYYCGQGTQVPYTFGQGTKLEIK	1.55
CE115HA000/GLS3000 G89L (antibody, IgG1, name in Kabat numbering, V domains shown, one-arm IgG1) VH: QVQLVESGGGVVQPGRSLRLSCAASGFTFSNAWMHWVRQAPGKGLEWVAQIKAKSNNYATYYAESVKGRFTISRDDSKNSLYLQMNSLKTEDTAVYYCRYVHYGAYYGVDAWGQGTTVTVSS VL: DIVMTQSPLSLPVTPGEPASISCRSSQSLVHSNRNTYLHWYQQKPGQAPRLLIYKVSNRFSGVPDRFSGSGSGTDFTLKISRVEAEDVGVYYCLQGTQVPYTFGQGTKLEIK	2.38
CE115HA000/GLS3000 H27dY (antibody, IgG1, name in Kabat numbering, V domains shown, one-arm IgG1) VH: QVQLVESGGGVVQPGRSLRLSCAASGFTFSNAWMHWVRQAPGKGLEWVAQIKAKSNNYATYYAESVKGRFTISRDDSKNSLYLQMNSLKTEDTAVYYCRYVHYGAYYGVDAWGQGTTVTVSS VL: DIVMTQSPLSLPVTPGEPASISCRSSQSLVYSNRNTYLHWYQQKPGQAPRLLIYKVSNRFSGVPDRFSGSGSGTDFTLKISRVEAEDVGVYYCGQGTQVPYTFGQGTKLEIK	1.98

Reported KD ratio to GLS3000, binder CE115HA000/GLS3000 F55P (antibody, IgG1, name in Kabat numbering, V domains shown, one-arm IgG1) VH: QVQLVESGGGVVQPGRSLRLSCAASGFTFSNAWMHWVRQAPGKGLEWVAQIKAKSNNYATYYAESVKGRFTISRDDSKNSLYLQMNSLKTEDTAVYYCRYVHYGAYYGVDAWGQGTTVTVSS VL: DIVMTQSPLSLPVTPGEPASISCRSSQSLVHSNRNTYLHWYQQKPGQAPRLLIYKVSNRPSGVPDRFSGSGSGTDFTLKISRVEAEDVGVYYCGQGTQVPYTFGQGTKLEIK : ____
1.15

Also, CE115HA000/GLS3000 S56Y (antibody, IgG1, name in Kabat numbering, V domains shown, one-arm IgG1) VH: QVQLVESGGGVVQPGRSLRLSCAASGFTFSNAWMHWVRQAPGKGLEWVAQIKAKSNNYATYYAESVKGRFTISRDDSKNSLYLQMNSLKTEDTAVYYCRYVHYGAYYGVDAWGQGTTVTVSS VL: DIVMTQSPLSLPVTPGEPASISCRSSQSLVHSNRNTYLHWYQQKPGQAPRLLIYKVSNRFYGVPDRFSGSGSGTDFTLKISRVEAEDVGVYYCGQGTQVPYTFGQGTKLEIK please.
1.1

Also, CE115HA000/GLS3000 S52D (antibody, IgG1, name in Kabat numbering, V domains shown, one-arm IgG1) VH: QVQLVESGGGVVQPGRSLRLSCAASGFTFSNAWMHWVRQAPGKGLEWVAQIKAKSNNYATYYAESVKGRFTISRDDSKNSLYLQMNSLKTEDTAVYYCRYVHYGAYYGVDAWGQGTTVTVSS VL: DIVMTQSPLSLPVTPGEPASISCRSSQSLVHSNRNTYLHWYQQKPGQAPRLLIYKVDNRFSGVPDRFSGSGSGTDFTLKISRVEAEDVGVYYCGQGTQVPYTFGQGTKLEIK please.
0.94

Also, CE115HA000/GLS3000 Q93A (antibody, IgG1, name in Kabat numbering, V domains shown, one-arm IgG1) VH: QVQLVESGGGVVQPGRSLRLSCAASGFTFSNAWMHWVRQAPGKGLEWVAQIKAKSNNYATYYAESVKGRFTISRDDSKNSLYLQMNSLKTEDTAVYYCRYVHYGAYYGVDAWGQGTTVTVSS VL: DIVMTQSPLSLPVTPGEPASISCRSSQSLVHSNRNTYLHWYQQKPGQAPRLLIYKVSNRFSGVPDRFSGSGSGTDFTLKISRVEAEDVGVYYCGQGTAVPYTFGQGTKLEIK please.
0.65
